Listed compounds paired with reported β2i (RA [%])
# Measurement target: β2i subunit of human iCP (Homo sapiens, UniProt P40306+P49720)
# Construct: purchased Boston Biochem, Inc., Cambridge, MA, USA
# Measurement description: Residual β2i activity, Boc-LRR-AMC
# Type: biochemical
# Measurement parameters: 10 µM, PA28α, Table 3

[[record]]
compound = "CC(C)C[C@H](NC(=O)[C@H](Cc1ccccc1)NC(=O)c1cnccn1)B(O)O [Bortezomib, reference compound]"
measured_quantity = "β2i (RA [%])"
observed_result = "16 ± 5%"


Now, please, on to the next compound.
Exam item: Please report the recorded β2i (RA [%]) for N#Cc1nc2cccc(O)c2o1 .
Marked response: 83%
